Here, compounds appear alongside IC50 reported for UniProt P28845 in the literature.
Readout label: IC50

| Compound | Target | Readout label | Result |
| --- | --- | --- | --- |
| O=C1N=C(Nc2ccccc2F)SC1C1CCCC1 (centres unmarked) | UniProt P28845 | IC50 | < 20 nM |
| O=C(O)CC1CC2(CCN(C(=O)CCc3ccccc3C(F)(F)F)CC2)c2c(Br)cccc21 (single isomer, unassigned) | UniProt P28845 | IC50 | < 100 nM |
| O=C1N=C(Nc2ccccc2Cl)SC1C1CCCCC1 (centres unmarked) | UniProt P28845 | IC50 | < 20 nM |
| O=C(NCc1ccccc1-c1ccccc1)N1CCC2(CC1)OCc1ccccc12 | UniProt P28845 | IC50 | 100 to 1000 nM |
| CNCCN(C)C(=O)CC1CC2(CCN(C(=O)/C=C/c3ccccc3C(F)(F)F)CC2)c2c(Cl)cccc21 (racemic) | UniProt P28845 | IC50 | < 100 nM |
| C[C@@H](c1ccc(Br)cc1)N1CCC[C@](CC(C)(C)O)(c2ccccc2)NC1=O | UniProt P28845 | IC50 | < 100 nM |
| CC1(C2CCOCC2)SC(Nc2ccccc2Cl)=NC1=O (centres unmarked) | UniProt P28845 | IC50 | < 20 nM |
| CCC(C)c1ccc(S(=O)(=O)N2CC3(C)CC2CC(C)(C)C3)cc1 (centres unmarked) | UniProt P28845 | IC50 | 55 nM |

* * *

Here, compounds appear alongside IC50 reported for 11-beta-hydroxysteroid dehydrogenase 1 (Homo sapiens, UniProt P28845) in the literature.
Readout label: IC50

| Compound | Readout label | Result |
| --- | --- | --- |
| CC(C)C1(C)SC(Nc2ccccc2Cl)=NC1=O (centres unmarked) | IC50 | < 20 nM |
| C[C@H](NC1=NS(=O)(=O)C(c2ccc(-c3ccccc3)nc2)C(C)(C)O1)c1ccccc1F (some centres unmarked) | IC50 | 27 nM |
| Cc1ccc(F)cc1NC1=NC(=O)C(C(C)C)S1 (centres unmarked) | IC50 | < 20 nM |
| CN1C(=O)C2(CCN(C(=O)CCc3ccccc3C(F)(F)F)CC2)c2ccccc21 | IC50 | < 100 nM |
| O=C1NC2(CCN(C(=O)/C=C/c3ccccc3C(F)(F)F)CC2)c2c(Cl)cc(Cl)cc21 | IC50 | < 100 nM |

* * *

Here, molecules appear alongside IC50 reported for 11-beta-hydroxysteroid dehydrogenase 1 (Homo sapiens) in the literature.

| Molecule | Target | U | Value modifier | IC50 |
| --- | --- | --- | --- | --- |
| Cc1ncc(-c2ccc([C@H](C3CC3)N3CC[C@](CC(C)(C)O)(c4ccccc4)OC3=O)cc2)cn1 | 11-beta-hydroxysteroid dehydrogenase 1 (Homo sapiens) | nM | = | 54 |
| O=C1N=C(NCC2CCCCC2)SC1[C@H]1CCOC1 (some centres unmarked) | 11-beta-hydroxysteroid dehydrogenase 1 (Homo sapiens) | nM | < | 20 |
| CC1(c2ccccc2)SC(Nc2ccccc2Cl)=NC1=O (centres unmarked) | 11-beta-hydroxysteroid dehydrogenase 1 (Homo sapiens) | nM | < | 20 |
| CCC(C)(O)c1ccc(S(=O)(=O)N2CC3(C)CC2CC(C)(C)C3)cc1 (centres unmarked) | 11-beta-hydroxysteroid dehydrogenase 1 (Homo sapiens) | nM | = | 30 |
| CC1(C)OC(N[C@@H](CCO)c2ccccc2F)=NS(=O)(=O)[C@H]1c1ccc(-c2ccnc(C(N)=O)c2)cc1 | 11-beta-hydroxysteroid dehydrogenase 1 (Homo sapiens) | nM | = | 7 |
| CC(C)(O)c1ccc(C2C(C)(C)OC(N[C@@H](CCO)c3ccccc3F)=NS2(=O)=O)cc1 (some centres unmarked) | 11-beta-hydroxysteroid dehydrogenase 1 (Homo sapiens) | nM | = | 48 |
| C[C@@H](c1ccc(Br)cc1)N1CCC[C@](CCCO)(c2ccccc2)NC1=O | 11-beta-hydroxysteroid dehydrogenase 1 (Homo sapiens) | nM | < | 100 |
| CN(C)C(=O)c1ccc(-c2ccc(C3C(C)(C)OC(N[C@@H](CCO)c4ccccc4F)=NS3(=O)=O)cc2)cc1 (some centres unmarked) | 11-beta-hydroxysteroid dehydrogenase 1 (Homo sapiens) | nM | = | 7 |
